Data provenance is patent US6387912B1.

The compounds listed here are annotated with their melting point.

melting point for CCOC(=O)N1Cc2sc3ncn(CCN4CCN(c5ncccn5)CC4)c(=O)c3c2C1 [Example 11] is 166 °C

melting point for CCOC(=O)N1Cc2sc3ncn(CC(C)N4CCN(c5ccccc5Cl)CC4)c(=O)c3c2C1 (centres unmarked) [Example 39] is 172 °C

melting point for COc1ccccc1N1CCN(CCn2cnc3sc4c(c3c2=O)CCN(C(C)=O)C4)CC1 [Example 116] is 170 to 172 °C

melting point for Cc1cccc(N2CCN(CCn3cnc4sc5c(c4c3=O)CCN(C)C5)CC2)c1C [Example 44] is 163 to 167 °C

melting point for CN1CCc2c(sc3ncn(CCN4CCN(c5nccc(C(F)(F)F)n5)CC4)c(=O)c23)C1 [Example 127] is 291 to 292 °C

melting point for COc1ccccc1N1CCN(CCCn2cnc3sc4c(c3c2=O)CCN(Cc2ccccc2)C4)CC1 [Example 18] is 66 to 67 °C

melting point for COc1ccccc1N1CCN(CCn2c(O)nc3sc4c(c3c2=O)CCN(C(C)=O)C4)CC1 [Example 121] is 135 to 137 °C

melting point for CN1CCc2c(sc3ncn(CCN4CCN(c5ccc6ccccc6c5)CC4)c(=O)c23)C1 [Example 73] is 140 to 141 °C

* * *

Where a name gives a salt, the structure may show the parent alone.
measured-quantity: melting point (°C)
Return type: number; implicit unit °C.

INSERT INTO results (compound, endpoint_value) VALUES
  ('Cc1c(C(=O)N(C)C)sc2ncn(CCN3CCN(c4cccc(C(F)(F)F)c4)CC3)c(=O)c12', 146),
  ('Cc1c(C(=O)N(C)C)sc2ncn(CCN3CCN(c4ccccc4C#N)CC3)c(=O)c12 (as salt: hydrochloride)', 210),
  ('Cc1c(C(=O)N(C)C)sc2ncn(CCN3CCN(c4cccc5c4CCC5)CC3)c(=O)c12', 153),
  ('CCOC(=O)N1Cc2sc3ncn(CCCN4CCN(c5ccccc5C#N)CC4)c(=O)c3c2C1', 190);

melting point for CCN1CCc2sc3ncn(CCN4CCN(c5cccc6c5CCCC6)CC4)c(=O)c3c2C1 (as salt: hydrochloride) is 287

* * *

The molecules listed here are annotated with their melting point.

As a guide, the following entries are already answered.
INSERT INTO measurements (structure, endpoint_value) VALUES
  ('CN1CCc2c(sc3ncn(CCN4CCN(c5ccccc5C#N)CC4)c(=O)c23)C1', '162 to 164 °C'),
  ('CN1CCc2c(sc3ncn(CCN4CCN(c5ccc(F)c6ccccc56)CC4)c(=O)c23)C1', '157 to 158 °C'),
  ('Cc1ccc(N2CCN(CCn3cnc4sc5c(c4c3=O)CCN(C)C5)CC2)c2ccccc12', '139 to 141 °C'),
  ('Cc1ccc2ccccc2c1N1CCN(CCn2cnc3sc(C(=O)N(C)C)c(C)c3c2=O)CC1', '178 to 180 °C'),
  ('CN1CCc2c(sc3ncn(CCCN4CCN(c5ccccc5O)CC4)c(=N)c23)C1', '164 to 166 °C');

melting point for O=c1c2c3c(sc2ncn1CCN1CCN(c2ccccc2)CC1)CN(Cc1ccccc1)CC3 is 70 to 71 °C

melting point for Cc1c(C(=O)N(C)C)sc2ncn(CCN3CCN(c4cccc5c4CCCC5)CC3)c(=O)c12 is 174 °C

melting point for N=c1c2c3c(sc2ncn1CCN1CCN(c2ccccc2)CC1)CN(Cc1ccccc1)CC3 is 168 to 170 °C
